pIC50: −log10 of the molar value.
Ok so here's the combined literature set: pIC50 for Insulin-like growth factor 1 receptor (Homo sapiens).

Use the examples below as a reference point.
compound: Cc1ccc(OC[C@H](O)CNc2cc[nH]c(=O)c2-c2nc3cc4c(cc3[nH]2)C(=O)N(C2CCN(C)CC2)C4=O)c(C)c1
endpoint: pIC50
value measured: > 6.30
//
compound: COc1ccc2c(ccn2C[C@H](O)CNc2cc[nH]c(=O)c2-c2nc3cc4c(cc3[nH]2)CN(C2CCN(C)CC2)C4=O)c1
endpoint: pIC50
value measured: 4.82 to 5.30
//
compound: COc1cc(C#N)ccc1OC[C@H](O)CNc1ccnc(O)c1-c1nc2cc3c(cc2[nH]1)C(=O)N(C1CCN(C)CC1)C3=O
endpoint: pIC50
value measured: 4.82 to 5.30

Req: What measured pIC50 is associated with `Cc1c2c(cc3[nH]c(-c4c(NC[C@@H](O)COc5c(F)ccc(Cl)c5F)cc[nH]c4=O)nc13)C(=O)N(C1CCN(C)CC1)C2=O` on Insulin-like growth factor 1 receptor (Homo sapiens)?
Resp: > 6.30

Req: Query for Insulin-like growth factor 1 receptor (Homo sapiens): what pIC50 does the record show for `C[C@]1(O)C[C@@H](n2nc(-c3ccc4ccc(-c5ccccc5)nc4c3F)c(C(N)=O)c2N)C1` ?
Resp: ≥ 7.00

Req: Provide value of pIC50 for this record tested with Insulin-like growth factor 1 receptor (Homo sapiens): `COC[C@@H](C)N1C(=O)c2cc3nc(-c4c(NC[C@@H](O)c5cccc(Cl)c5)cc[nH]c4=O)[nH]c3cc2C1=O`
Resp: < 4.82

Req: Form entry - test system: Insulin-like growth factor 1 receptor (Homo sapiens); read-out: pIC50; molecule: `C=CC(=O)Nc1cc(Nc2nccc(-c3nn(C45CC(C4)C5)c4ccccc34)n2)c(OC)cc1N(C)CCN(C)C`
Resp: ≤ 7.00

Req: GET /values?readout=pIC50&system=Insulin-like growth factor 1 receptor (Homo sapiens)&item= `NC(=O)c1c(-c2ccc3ccc(-c4ccccc4)nc3c2)nn(C2CCN(CCO)CC2)c1N`
Resp: 6.00 to 7.00
